- Test system: CP237
- Test details: qHTS profiling for inhibitors of Plasmodium falciparum proliferation (AID 504749); also: nearly all actives have a fitted effect of over 60% in size; also: potency is read from the fitted curve at half-maximal effect
- Experimental context: P. falciparum in erythrocytes, SYBR Green DNA, 72 h; series mostly up to 28.7 µM
Inconclusive results are not listed. Calls of active or inactive are those of the source. Calls follow the shape of the dose curve; as a rule, active = well fitted inhibition curve with a large enough effect; inconclusive = small, poorly fitted or top-dose-only effect; inactive = flat fitted curve, though single readings scatter.
Measure: Potency

>>> result("CC[N+]1(CCOC(=O)C(O)(c2ccccc2)c2ccccc2)CCCCC1")
"inactive"
>>> result("COC(=O)[C@@H](N)CCCN=C(N)N[N+](=O)[O-]")
"inactive"
>>> result("NC(=O)CN1CC(O)CC1=O (configuration not stated)")
"inactive"
>>> result("CCCCCCCCCCCCCCCC[N+](C)(C)C")
"7.08 µM (active)"
>>> result("C1CCC(NC2CCCCC2)CC1")
"inactive"
>>> result("Cc1ccc(Cl)c(O)c1")
"inactive"
>>> result("CC(=O)[O][Hg][c]1ccccc1")
"4.47 µM (active)"
>>> result("COC(C)(C)CCCC(C)C/C=C/C(C)=C/C(=O)OC(C)C (configuration not stated)")
"12.6 µM (active)"
>>> result("C#CC1(O)CCC2C3CCC4=CC(=O)CCC4(C)C3CCC21C (configuration not stated)")
"inactive"
>>> result("O=C(O)COc1ccccc1")
"inactive"
>>> result("c1ccc(C2(c3ccccc3)CC2C2=NCCN2)cc1 (configuration not stated)")
"inactive"
>>> result("C[C@]12CCC(=O)C(O)=C1CC[C@@H]1[C@H]3CCC(=O)[C@@]3(C)CC[C@@H]12")
"inactive"

Source of measurements: PubChem BioAssay (NCATS)
